Recorded GI50 by entry
# experimentalSystem: EGFR Exon 20 INSNPH Ba/F3 (Homo sapiens, UniProt P00533, DUP771-773, cells depend on it)
# Sequence (P00533 with tags, fused parts or gaps DUP771-773): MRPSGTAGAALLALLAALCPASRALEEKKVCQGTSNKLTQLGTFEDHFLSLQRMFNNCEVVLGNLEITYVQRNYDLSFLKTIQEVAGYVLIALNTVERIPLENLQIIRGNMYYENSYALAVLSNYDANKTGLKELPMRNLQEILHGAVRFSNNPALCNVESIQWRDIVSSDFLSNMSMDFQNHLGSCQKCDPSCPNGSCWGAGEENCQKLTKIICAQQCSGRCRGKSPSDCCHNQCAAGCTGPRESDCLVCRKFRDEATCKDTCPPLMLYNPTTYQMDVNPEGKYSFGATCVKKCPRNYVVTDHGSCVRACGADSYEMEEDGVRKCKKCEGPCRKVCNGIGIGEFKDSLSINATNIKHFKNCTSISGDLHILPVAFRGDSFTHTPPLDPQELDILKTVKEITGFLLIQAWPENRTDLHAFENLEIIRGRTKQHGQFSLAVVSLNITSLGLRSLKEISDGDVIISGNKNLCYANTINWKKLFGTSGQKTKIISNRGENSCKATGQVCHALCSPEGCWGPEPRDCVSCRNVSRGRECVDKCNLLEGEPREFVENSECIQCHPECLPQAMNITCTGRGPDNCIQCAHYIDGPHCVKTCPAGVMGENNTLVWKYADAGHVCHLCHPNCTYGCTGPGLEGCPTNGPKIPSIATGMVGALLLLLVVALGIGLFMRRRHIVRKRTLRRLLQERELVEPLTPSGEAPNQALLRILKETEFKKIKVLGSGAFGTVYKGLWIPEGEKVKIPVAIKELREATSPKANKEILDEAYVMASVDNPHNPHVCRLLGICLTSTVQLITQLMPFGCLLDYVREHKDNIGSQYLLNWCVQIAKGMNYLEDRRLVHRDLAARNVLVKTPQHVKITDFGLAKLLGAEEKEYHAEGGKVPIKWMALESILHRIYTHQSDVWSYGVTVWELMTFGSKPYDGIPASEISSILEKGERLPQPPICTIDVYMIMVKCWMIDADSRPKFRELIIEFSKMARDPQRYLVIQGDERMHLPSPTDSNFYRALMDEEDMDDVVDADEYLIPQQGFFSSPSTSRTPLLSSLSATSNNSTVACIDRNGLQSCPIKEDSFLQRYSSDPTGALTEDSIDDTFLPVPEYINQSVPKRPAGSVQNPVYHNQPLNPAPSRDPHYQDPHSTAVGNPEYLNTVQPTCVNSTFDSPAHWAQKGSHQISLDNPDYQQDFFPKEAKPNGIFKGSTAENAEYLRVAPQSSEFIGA
# assayText: EGFR Exon 20 INSNPH Ba/F3 CellTiter-Glo
# Type: cell-based
# measurementParameters: CellTiter-Glo, 72 h, read-out: EGFR Exon 20 INSNPH Ba/F3 CTG IC50

Illustrative cases are given below, each with its answer.
C=CC(=O)Nc1cc(-c2c(-c3ccc(C(=O)N4CCN(C)CC4)cc3)[nH]c3nccc(Cl)c23)ccc1C [Example 9] ... 100 to 500 nM
C=CC(=O)Nc1cc(-c2c(-c3ccc(N4CCN(C)CC4)cc3)[nH]c3ncc(C(=O)NCc4cccnc4)cc23)ccc1C [Example 128] ... 1000 to 10000 nM
C=CC(=O)Nc1cc(-c2c(-c3cnc(N4CCN(C)CC4)nc3)[nH]c3ncc(C(=O)OC(C)C)cc23)ccc1C [Example 175] ... 1000 to 10000 nM
C=CC(=O)Nc1cc(-c2c(-c3cccc(C(=O)N4CCCCCC4)c3)[nH]c3nccc(Cl)c23)ccc1C [Example 45] ... 1000 to 10000 nM

Tested on EGFR Exon 20 INSNPH Ba/F3 (Homo sapiens, UniProt P00533, DUP771-773, cells depend on it), the item C=CC(=O)Nc1cc(-c2c(-c3cccc(C(=O)NCCCN(C)Cc4ccccc4)c3)[nH]c3nccc(Cl)c23)ccc1C [Example 51] showed GI50 equal to 500 to 1000 nM

Tested on EGFR Exon 20 INSNPH Ba/F3 (Homo sapiens, UniProt P00533, DUP771-773, cells depend on it), the item C=CC(=O)Nc1cc(-c2c(-c3ccc(N4CCN(C)CC4)cc3)[nH]c3nccc(Cl)c23)cc(C)c1C [Example 150, 2,2,2-trifluoroacetate] showed GI50 equal to 100 to 500 nM

Tested on EGFR Exon 20 INSNPH Ba/F3 (Homo sapiens, UniProt P00533, DUP771-773, cells depend on it), the item C=CC(=O)Nc1cc(-c2c(-c3ccc(N4CCN(C)CC4)cc3OC)[nH]c3nccc(Cl)c23)ccc1C [Example 21] showed GI50 equal to 500 to 1000 nM

Tested on EGFR Exon 20 INSNPH Ba/F3 (Homo sapiens, UniProt P00533, DUP771-773, cells depend on it), the item C=CC(=O)Nc1cc(-c2c(-c3ccc(N4CCNCC4)cc3)[nH]c3nccc(Cl)c23)ccc1C [Example 96, 2,2,2-trifluoroacetate] showed GI50 equal to 100 to 500 nM

Tested on EGFR Exon 20 INSNPH Ba/F3 (Homo sapiens, UniProt P00533, DUP771-773, cells depend on it), the item C=CC(=O)N1CCc2ccc(-c3c(-c4ccc(N5CCN(C)CC5)cc4)[nH]c4nccc(OCC)c34)cc21 [Example 104, 2,2,2-trifluoroacetate] showed GI50 equal to 100 to 500 nM

Tested on EGFR Exon 20 INSNPH Ba/F3 (Homo sapiens, UniProt P00533, DUP771-773, cells depend on it), the item C=CC(=O)Nc1cc(-c2c(-c3cccc(CN4CCN(C(C)=O)CC4)c3)[nH]c3ncc(C(=O)OC(C)C)cc23)ccc1C [Example 186] showed GI50 equal to 1000 to 10000 nM

Tested on EGFR Exon 20 INSNPH Ba/F3 (Homo sapiens, UniProt P00533, DUP771-773, cells depend on it), the item C=CC(=O)Nc1cc(-c2c(-c3ccc(N4CCN(C)CC4)cc3)[nH]c3ncc(OC(F)(F)F)cc23)ccc1C [Example 188, 2,2,2-trifluoroacetate] showed GI50 equal to 100 to 500 nM

Tested on EGFR Exon 20 INSNPH Ba/F3 (Homo sapiens, UniProt P00533, DUP771-773, cells depend on it), the item C=CC(=O)Nc1cc(-c2c(-c3ccc(OCCN4CCCC4)cc3)[nH]c3nccc(Cl)c23)ccc1C [Example 38] showed GI50 equal to ≤ 100 nM
